system: K4 kissing-loop RNA reporter; experiment: apparent KD of K4 kissing-loop reporter; higher = weaker reporter binding; conditions: Eterna round: R107; input ligand: FMN 200 uM
Categorized via apparent KD of K4 kissing-loop reporter: bottom range: < 100 nM; center range: ≥ 100 nM and < 200 nM; top range: ≥ 200 nM

Study these solved cases before continuing.
ACAGAUUGAUUGAUUCACUUUGUAGCUGCGAAGGAUAUUAAGACGCUAAGAAGGUCGCUUAAGGGUAGUGAUGUUACCUUUUGAG [theeternabot_sameState_KL_FMN_A_27]	bottom range
AAGUGAUGUUGUAGUGAUGUUGUGAUGUUGCAGGAUAUAUAGUGAUGUAGAAGGGUAUGUGCAGUUUUCUUAUUUGAGUGUUGAU [zwzamullin]	bottom range

Assign a bin to AGACUACCACACUGUCAAUAGACAGUGAACUAGGAUAUGCUGAUAAGCAGAAGGAGUGAUGUUCCGAGGUAGUCAAUAAAAUAAU [FmnAX 13 G66]
top range

State the band of GGUAUGGAAGCAACAUCACAAGCCGUACCACGAGGACCGGUACGGCCGCCACUCGAUAACUUGCAGUGAUGUUGCAAGUAAGAAU [(T)''-(K)'-(T)'-(T1)-(T2)-(K1)-(K2)_Design6]
center range

Using the reported apparent KD of K4 kissing-loop reporter, which band applies to UGAUACCAGACGGCCGCCACUAGGACCGGGAGUGAUGUUCCAAAAUUAAAAUACUCGGCCGCCACUAGGACCGGGUCUGGUAUCU [TrypBX 25 #DoubleAptamer #SwitchBubble] ?
top range

Could you place AAGUCAUAGGCAGGAUAUGCAUAGUAAUAAGGCAAUAUCUACGUAUAGAGUGAUGUUUUGUACCAGGCAGAAGGGCUACAUCAGU [FMN B Excl V9 (+4A/C)] in its proper category? Many thanks.
top range

Dear colleague, I would appreciate it if you could identify the bin for GGUAGCAUGGCGGCCGCCACUUCAAGUGGAGUGAUGUUCCACGGCAUCGCGAAAGCGAUGCCUGGAAGGACCGGGCCAUGCUACC and reply at your convenience.
top range

For this sequence, which bin applies? UUAAUAAUUCAAGGAUAUGUUUUCUAUUUCGAGUGAUGUUCGGUAUUAAUAAAUUUAAUAGAUUAUACAGAAGGUGAUGGAUAGU [Cynwulf-mod#5]
center range

* * *

Catalogue of sequences with associated apparent KD of MS2 coat protein
tested on: MS2 coat protein; test: apparent KD of MS2 coat protein; higher = weaker reporter binding; details: Eterna round: R107; input ligand: theophylline 20 uM
Give the value, in units of nM, as a plain number.

Reference set (5 entries):
AAUCAUGAAAACAUGACAUGAGGAUCACUCCGAGGACCGGUACGGCCGCCACUCGCGAGGAGGCACAUGAGGAUCACCCAUGUUA [SS Tryp A #1]	114
AAACAUGAGGAUCACCCAUGUCCUCCUGUCCGAGGACCGGUACGGCCGCCACUCGGUUCUCGGGAGGAUGGUCAAAGACUAUCCA [Omei Trp A SS B v9]	327
GGACUAACCAGAAGGAGCGGCACAAAGCAGAAACUGCAUCCUCCGCACGAGGAUCACCCGUGUCAGGUAGGUCGCUGGUUAGUCG [ArgBX 28]	70.6
AUAUAUACAUGAGGAUCACCCAUGUUAUUUCGAGGACCGGUACGGCCGCCACUCGAUAGAGUAGAAGUAAAUUUUGUUACAUGUA [JR_SSTryptoA_Sub010]	13.7
GUAUCGACAUGAGGAUCACCCAUGUCCGAAGGAGCGUUGGGAACAACAGGUAGGUCGCGGACAUAGAGCAUCCGGAAACGGAUGC [EAA NP+V+V2 #1]	16.4

Shifting focus to the sequence that follows.
So what's the measured apparent KD of MS2 coat protein for this one? UAUCCACAUGAGGAUCACCCAUGUAAGGAAGGAGCGGUGAAUGAACCAGGUAGGUCGCCUUGGUGAGGAUCAUCUAUGGAUUCGU [Exclusion - Arginine A (Freestyle 10)]
65.9

* * *

tested on: K4 kissing-loop RNA reporter; assay: apparent KD of K4 kissing-loop reporter; higher = weaker reporter binding; conditions: Eterna round: R107; input ligand: FMN 200 uM
endpoint_label: apparent KD of K4 kissing-loop reporter (nM)
Provide the reading as a plain figure in nM.

Consider the reported apparent KD of K4 kissing-loop reporter for these sequences:
ACUACGAAGACGGCCGCCACUGAUAUUCGUAGAUCCAUCAUUGCAUGAGUGAUGUUCAUGUAUAUCAGGACCGGGUCAAGAUGGU [KL-XTryp-B18 #analogue]	295
AAUAAUGAUGUUUAGGAAAGUAAAAUGGAAGGAGCGUGCGAAAGCACAGGUAGGUCGCCAGUGAUGUUGGAACCUGAGCAUCAAA [#SwitchBubble 19 #K4Late]	907
AAUAUAAAGUCGGCCGCCACUGGAUUUAUAUUUGUUAAAUCUGGAUCAAAGUGAUGUUUUGAGUCCAGGACCGGGACAAUUGUUA [JR_ExcTryptoB_Sub001]	123

Give apparent KD of K4 kissing-loop reporter (K4 kissing-loop RNA reporter) of the following sequence: UGUGAGCUGUCGACAAAAGUCGACUAAAGCGAGGAUAUGACGAAAGUCAGAAGGCGUCAAUAAUGGAGUGAUGUUCCUGCUCACU [FmnA 9 G29]
306

Missing value: apparent KD of K4 kissing-loop reporter, K4 kissing-loop RNA reporter, entry CGUUGUGAUGCUUGUGCUCAUACCGGAGAUACCAGUACCAUCACUUACCCUUGGCAGCUCAGUAAAGACAAGUGAUGUUUGUCAC [theeternabot_sameState_KL_Theo_A_38] . Fill in?
684

Observed apparent KD of K4 kissing-loop reporter on K4 kissing-loop RNA reporter for CGUGAGUGCCGUCAGUCAUCGGUCCAUGCACGAGGACCGGUACGGCCGCCACUCGAGCGUGGCAGUGAUGUUGCCAGCGCACUAA [KL-XTryp-A12] , please.
117

* * *

tested on: K4 kissing-loop RNA reporter; experiment: apparent KD of K4 kissing-loop reporter; higher = weaker reporter binding; settings: Eterna round: R107; input ligand: theophylline 20 uM;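 also: bound reporter read as fluorescence of individual clusters on recovered sequencing chips by microscopy, with normalized cluster intensities fitted with a binding model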
endpoint_label: apparent KD of K4 kissing-loop reporter (nM)
Your answer should be a plain number; it is taken to be in nM.

Past entries and their recorded results:
AGUGUGCAAAAGCACACUCAGCACAAGGACAAGGAUAUCUACUAAUAGAGAAGGUGUCCUUUCCUUAGUGAUGUUAAGGAGCUGA [Omei KL FMN A SS D v1]	624
GCUAUGGUAGGAAGGAGCGCGGACGGUAUUUGUCGAGUGAUGUUCGAUUCUUUAAUUUGAACGCAGGUAGGUCGCCUACUAUAGC [Arginine B K4 30]	258
UGUCGAGUGAUGUUCGAUGUGGUGCAUUCAGAGGAUAUAGGGUGGGCUAGAAGGCUGAAAAGUGCUUCGAGUGAUGUUCGAAGAU [Exclusion FMN A GF8]	132

Tell me the measured apparent KD of K4 kissing-loop reporter of AUUAAUUUCAGAGGAUAUCGUAAUUUUAUUUAAUUUAUUCAUUUGUGCAGUGAUGUUGCUAAUAUUCGAGAAGGCUGAUUUAUAA [whbob_Ex_FMNB__2th223] , please.
171

* * *

system: MS2 coat protein; experiment: apparent KD of MS2 coat protein; designed switch direction (-1 OFF switch, 1 ON switch): 1; higher = weaker reporter binding; settings: input ligand: none
endpoint_label: apparent KD of MS2 coat protein (nM)
// note: answer is a bare numeric in nM

GGUCGGACCUACAUGAGGAUCACCCAUGUUCCGGAAACGGCAUAGGAUAUCUGUCCGAAAAGGUCAGAGAAGGGUGAACCGACC [Fiskers NG3ss - 74] (Eterna round: R96, puzzle: Same State NG 3)	162

Hello, I am looking for reported apparent KD of MS2 coat protein with MS2 coat protein for AGGUUCCUGCUAGGAUAUCUAGGAUAUGGACGAGGAUUACCCGAGCAGGAUUACCGCACCAGAGGAGAGAAGGAGCAACAAGAG [pwkr ssNG2 2F5 2FMN.14] (Eterna round: R96, puzzle: Same State NG 2) . Could you help?
160

* * *

test system: MS2 coat protein; experiment: apparent KD of MS2 coat protein; designed switch direction (-1 OFF switch, 1 ON switch): 1; higher = weaker reporter binding; details: Eterna round: R95; input ligand: microRNA oligo, concentration not stated
The threshold is inclusive: apparent KD of MS2 coat protein of exactly 30 nM counts as Satisfied; values below receive Not satisfied.

Solved cases (8 shown):
CAGCGCUGUUGAGAGGAUAUGCGGUGAUGGACAUGAGGAUCACCCAUGUUAGCGACAGCAUUACGGUAGAAGGCUCCACAGCUGC [Soteed Omei mod 14] (puzzle: Same State 2)	Not satisfied
AACAAUCUAUCUGAGGAUAUCAUGAAAUAAACAUGAGGAUCACCCAUGUGCAGGAAAACUGCAUAUGAGAAGGCAGAUAGUUUGA [salish99_ss2_r3_056] (puzzle: Same State 2)	Satisfied
CUCAAACAUGAGGAUCACCCAUGUGUUGUCAUGGGAGGAUAUCCCAGUUCGUUGUAGUCGGGAGAAGGCCUAUGUC [× ×•×ª×• ×ž×“×™× ×” × ×—×ª-13] (puzzle: Same State 1)	Satisfied
AGUCCAGCCUGAGCUGGACAAAAGCGUGUACAUGAGGAUCACCCAUGUCAUGUACAAGCUUUUUGCUCGUCUUAAAA [Zipper 46 - 7] (puzzle: Sensor for hsa-mir-208a)	Not satisfied
AUAAAACAUGAGGAUCACCCAUGUCAACAAAGUCGAGGAUAUGUGCAAAUAAAAUAAGAACCAGAAGGCGAAUAAU [salish99_ss1_r3_049] (puzzle: Same State 1)	Not satisfied
CCGUUGAUAGGACAGGAUAUGACUGUCGUCACAUGAGGAUCACCCAUGUCCCGGCAAUGCCACCGUUAGAAGGGUCCCGUCUCGG [Beenraor] (puzzle: Same State 2)	Not satisfied
GAGGGACAUGAGGAUCACCCAUGUGGUAAAUUUAAAGGAUAUUAGUGUGGGAAAGUAGGGUAAGAAGGUUGAUUGG [JR_SS1_Sub086] (puzzle: Same State 1)	Satisfied
AGAAAACAUGAGGAUCACCCAUGUAUAGUGAAUACAGGAUAUCACCGACGGAAUAAUUGGUGAGAAGGGUGAUCGC [Ceaqu] (puzzle: Same State 1)	Not satisfied

Read the next record carefully.
Decide: is the reported value of apparent KD of MS2 coat protein for AGUCCAGCCAGAGCUGGACAAAAGCAUGUACAUGAGGAUCACCCAUGUUCAUGUACAAGCUUUUUGCUCGUCUUAAU [Mat - hsa-mir-208a - Mod of JL - 59] (puzzle: Sensor for hsa-mir-208a) equal to or greater than 30 nM?
Not satisfied
